assayed_target: rat mGlu2 (Rattus norvegicus, UniProt P31421)
Construct: expressed in transfected cells
Sequence (P31421 19-872): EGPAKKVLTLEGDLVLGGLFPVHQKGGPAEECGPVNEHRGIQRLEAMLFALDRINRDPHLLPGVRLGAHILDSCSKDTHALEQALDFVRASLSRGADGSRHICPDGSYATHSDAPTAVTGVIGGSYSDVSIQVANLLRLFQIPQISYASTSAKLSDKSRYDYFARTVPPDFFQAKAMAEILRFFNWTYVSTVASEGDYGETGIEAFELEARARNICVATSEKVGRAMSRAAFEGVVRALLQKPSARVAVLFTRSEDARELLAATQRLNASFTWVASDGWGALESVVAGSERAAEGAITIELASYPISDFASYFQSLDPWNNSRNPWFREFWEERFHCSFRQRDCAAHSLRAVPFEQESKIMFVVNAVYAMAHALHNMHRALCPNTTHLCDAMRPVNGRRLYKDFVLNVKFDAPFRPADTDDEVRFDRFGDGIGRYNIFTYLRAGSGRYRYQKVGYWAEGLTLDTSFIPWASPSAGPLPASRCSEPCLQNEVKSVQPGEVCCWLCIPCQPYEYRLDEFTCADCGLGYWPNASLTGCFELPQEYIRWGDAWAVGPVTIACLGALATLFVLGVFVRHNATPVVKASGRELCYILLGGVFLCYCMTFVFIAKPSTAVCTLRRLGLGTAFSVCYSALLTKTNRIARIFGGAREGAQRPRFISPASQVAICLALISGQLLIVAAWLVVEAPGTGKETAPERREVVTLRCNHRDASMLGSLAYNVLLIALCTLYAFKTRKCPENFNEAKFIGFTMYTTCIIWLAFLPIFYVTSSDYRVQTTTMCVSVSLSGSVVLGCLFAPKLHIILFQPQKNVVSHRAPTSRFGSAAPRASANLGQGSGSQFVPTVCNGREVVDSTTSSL
assay_remarks: mGlu2 Ca2+ flux assay
Assay type: cell-based
experimental_context: amplitude of response in the presence of 30 μM test compound as percentage of maximal response to glutamate; read-out: rat mGlu2 Glu max (%)
// assign criterion met if remaining activity at 30 µM falls strictly below 1%, else criterion not met (ties count as criterion not met)

>>> group_label("NC(=O)c1cn(-c2ccc(F)cc2)c2ccc(CN3CCCS(=O)(=O)CC3)cc2c1=O")
"criterion not met"
>>> group_label("NC(=O)c1cn(-c2ccc(F)cc2)c2ccc(NCc3cccnc3)cc2c1=O")
"criterion not met"
>>> group_label("NC(=O)c1cn(-c2ccc(F)cc2)c2ccc(-c3ccncc3)cc2c1=O")
"criterion met"
>>> group_label("CN1CCN(Cc2ccc3c(c2)c(=O)c(C(N)=O)cn3-c2ccc(F)cc2)CC1")
"criterion met"
>>> group_label("Cc1ccc(COc2ccc3c(c2)c(=O)c(C(N)=O)cn3-c2ccc(F)cc2)cn1")
"criterion not met"
>>> group_label("COC1CCN(Cc2ccc3c(c2)c(=O)c(C(N)=O)cn3-c2ccc(F)cc2)CC1")
"criterion not met"
>>> group_label("NC(=O)c1cn(-c2ccc(F)cc2)c2ccc(CN3CC4(C3)CC(F)(F)C4)cc2c1=O")
"criterion not met"
>>> group_label("COc1ccc(-n2cc(C(N)=O)c(=O)c3cc(CCc4cnc(C)nc4)ccc32)c(F)c1")
"criterion not met"
>>> group_label("CN(Cc1cccnc1)c1cc(F)c2c(c1)c(=O)c(C(N)=O)cn2-c1ccc(F)cc1")
"criterion not met"
>>> group_label("NC(=O)c1cn(-c2ccc(F)cc2)c2ccc(COc3ccnc(C(F)(F)F)c3)cc2c1=O")
"criterion not met"
>>> group_label("COc1ccc(-n2cc(C(N)=O)c(=O)c3cc(CCc4cnc(C)nc4)ccc32)cc1")
"criterion not met"

* * *

assayed_target: rat mGlu2 (Rattus norvegicus)
Construct: expressed in transfected cells
assay_remarks: mGlu2 Ca2+ flux assay
Format: cell-based
experimental_context: Gα15 HEK293 cells stably expressing rat mGlu2; glutamate EC80 addition; read-out: rat mGlu2 IC50
Quick reference: IC50 of the listed items.
endpoint: IC50

>>> reported_result("NC(=O)c1cn(-c2ccc(F)cc2)c2ccc(CN3CCCOCC3)cc2c1=O")
"> 10 µM"
>>> reported_result("Cc1ccccc1CCc1ccc2c(c1)c(=O)c(C(N)=O)cn2-c1ccc(F)cc1")
"> 10 µM"
>>> reported_result("Cc1ncc(-c2ccc3c(c2)c(=O)c(C(N)=O)cn3-c2ccc(F)cc2)cn1")
"> 10 µM"

* * *

assayed_target: rat mGlu2 (Rattus norvegicus)
Construct: expressed in transfected cells
assay_remarks: mGlu2 Ca2+ flux assay
Assay type: cell-based
experimental_context: Gα15 HEK293 cells stably expressing rat mGlu2; glutamate EC80 addition; read-out: rat mGlu2 IC50
Quick reference: log10 of IC50 of the listed items.
endpoint: log10 of IC50 (log10 of the value in µM)

>>> reported_result("CS(=O)(=O)N1CCN(Cc2ccc3c(c2)c(=O)c(C(N)=O)cn3-c2ccc(F)cc2)CC1 [Compound 83]")
-0.16
>>> reported_result("NC(=O)c1cn(-c2ccc(F)cc2)c2ccc(CN3CCCS(=O)(=O)CC3)cc2c1=O [Compound 85]")
-0.37
>>> reported_result("NC(=O)c1cn(-c2ccc(F)cc2)c2ccc(CN3CCC(F)(F)C3)cc2c1=O [Compound 86]")
-0.59
>>> reported_result("NC(=O)c1cn(-c2ccc(F)cc2)c2c(F)cc(CN3CCC(F)(F)CC3)cc2c1=O [Compound 94]")
0.25
>>> reported_result("CC(=O)N1CCN(Cc2ccc3c(c2)c(=O)c(C(N)=O)cn3-c2ccc(F)cc2)CC1 [Compound 82]")
0.50
>>> reported_result("COc1ccc(-n2cc(C(N)=O)c(=O)c3cc(CCc4cnc(C)nc4)ccc32)c(F)c1 [Compound 13]")
-0.51

Values from patent US9382208B1
